Consider the following molecules and their measured EC50 readings.
Tested on: Cavia porcellus
Assay: Toxicity in guinea pig assessed as reduction of pilocarpine-induced salivation administered via intranasal administered for 4 hrs followed by pilocarpine challenge measured every 5 mins for 15 mins
Type: organism-based
MEASURED ATTRIBUTE: EC50

INSERT INTO measurements (molecule, data_value) VALUES
  ('Cc1cc(NC(=O)C[N+]23CCC(CC2)[C@@H](OC(=O)C2(C4=CC=CC4)CCCCCC2)C3)no1', '> 30 µg/kg'),
  ('C[N+]1(C)[C@@H]2C[C@@H](OC(=O)C(O)(c3cccs3)c3cccs3)C[C@H]1[C@@H]1O[C@@H]12.O.[Br-] [TIOTROPIUM BROMIDE]', '< 0.3 µg/kg'),
  ('O=C(O[C@H]1C[N+]2(Cc3nnc(-c4ccccc4)o3)CCC1CC2)C1(C2=CC=CC2)CCCCCC1', '> 30 µg/kg'),
  ('O=C(C[N+]12CCC(CC1)[C@@H](OC(=O)C1(C3=CC=CC3)CCCCCC1)C2)Nc1ccccn1', '> 30 µg/kg'),
  ('O=C(C[N+]12CCC(CC1)[C@@H](OC(=O)C1(C3=CC=CC3)CCCCCC1)C2)Nc1ccon1', '> 10 µg/kg'),
  ('O=C(C[N+]12CCC(CC1)[C@@H](OC(=O)C1(C3=CC=CC3)CCCCCC1)C2)Nc1cccnn1', '> 10 µg/kg'),
  ('O=C(O[C@H]1C[N+]2(Cc3cc(-c4ccccc4)no3)CCC1CC2)C1(C2=CC=CC2)CCCCCC1', '> 30 µg/kg'),
  ('O=C(O[C@H]1C[N+]2(Cc3nc4ccccc4o3)CCC1CC2)C1(C2=CC=CC2)CCCCCC1', '> 10 µg/kg');

====

Assay: Plasma protein binding in human
Format: ADME, cell-free
Settings: read-out: PPB (converted)
Consider the following molecules and their measured fraction unbound readings.
MEASURED ATTRIBUTE: fraction unbound

INSERT INTO measurements (smiles_code, measured_attribute, data_value) VALUES
  ('O=C(C[N+]12CCC(CC1)[C@@H](OC(=O)C1(C3=CC=CC3)CCCCCC1)C2)Nc1ncccc1F', 'fraction unbound', 0.06),
  ('O=C(O[C@H]1C[N+]2(CCCc3ccncc3)CCC1CC2)C1(c2cccs2)CCCCCC1', 'fraction unbound', 0.06),
  ('O=C(O[C@H]1C[N+]2(CCCc3nc4ccccc4o3)CCC1CC2)C1(C2=CC=CC2)CCCCCC1', 'fraction unbound', 0.04),
  ('O=C(C[N+]12CCC(CC1)[C@@H](OC(=O)C1(C3=CC=CC3)CCCCCC1)C2)NCCCNC(=O)c1ccccn1', 'fraction unbound', 0.026),
  ('C[N+]12CCC(CC1)[C@@H](OC(=O)C1(C3=CC=CC3)CCCCCC1)C2', 'fraction unbound', 0.27),
  ('O=C(O[C@H]1C[N+]2(CCOCc3ccccc3)CCC1CC2)C1(C2=CC=CC2)CCCCCC1', 'fraction unbound', 0.03);

====

Biological target: Muscarinic acetylcholine receptor M3 (Homo sapiens, UniProt P20309)
Sequence (P20309 whole entry): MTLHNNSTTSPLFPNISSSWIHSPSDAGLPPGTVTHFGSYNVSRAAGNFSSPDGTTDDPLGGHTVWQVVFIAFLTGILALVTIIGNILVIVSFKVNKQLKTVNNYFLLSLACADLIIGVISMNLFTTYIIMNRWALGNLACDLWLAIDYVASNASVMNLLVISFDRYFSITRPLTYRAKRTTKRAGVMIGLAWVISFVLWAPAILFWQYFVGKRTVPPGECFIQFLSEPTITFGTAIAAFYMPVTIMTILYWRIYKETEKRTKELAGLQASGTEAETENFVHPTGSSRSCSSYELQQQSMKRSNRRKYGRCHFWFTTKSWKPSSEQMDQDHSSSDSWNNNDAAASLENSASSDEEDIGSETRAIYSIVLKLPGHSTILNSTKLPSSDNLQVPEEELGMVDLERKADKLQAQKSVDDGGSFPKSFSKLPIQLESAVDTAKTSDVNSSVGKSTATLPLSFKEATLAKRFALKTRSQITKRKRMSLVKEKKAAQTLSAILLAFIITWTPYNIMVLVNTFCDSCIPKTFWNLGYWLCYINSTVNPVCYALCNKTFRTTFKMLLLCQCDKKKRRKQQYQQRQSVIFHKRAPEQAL
Experiment: Displacement of [3H]NMS from recombinant human M3 receptor expressed in CHO-K1 cells after 16 hrs by SPA method
pIC50: −log10 of the molar value.
Consider the following molecules and their measured pIC50 readings.
MEASURED ATTRIBUTE: pIC50

INSERT INTO assay_data (smiles_code, measured_attribute, data_value) VALUES
  ('O=C(O[C@H]1C[N+]2(CCCc3ccncc3)CCC1CC2)C1(C2=CC=CC2)CCCCCC1', 'pIC50', '> 10.40'),
  ('O=C(C[N+]12CCC(CC1)[C@@H](OC(=O)C1(C3=CC=CC3)CCCCCC1)C2)Nc1cnccn1', 'pIC50', '> 9.90'),
  ('O=C(C[N+]12CCC(CC1)[C@@H](OC(=O)C1(C3=CC=CC3)CCCCCC1)C2)Nc1ccon1', 'pIC50', '> 10.20');
